Sourced from ChEMBL document CHEMBL1201862

Target: Fatty acid synthase (Homo sapiens, UniProt P49327)
Sequence (P49327 whole entry): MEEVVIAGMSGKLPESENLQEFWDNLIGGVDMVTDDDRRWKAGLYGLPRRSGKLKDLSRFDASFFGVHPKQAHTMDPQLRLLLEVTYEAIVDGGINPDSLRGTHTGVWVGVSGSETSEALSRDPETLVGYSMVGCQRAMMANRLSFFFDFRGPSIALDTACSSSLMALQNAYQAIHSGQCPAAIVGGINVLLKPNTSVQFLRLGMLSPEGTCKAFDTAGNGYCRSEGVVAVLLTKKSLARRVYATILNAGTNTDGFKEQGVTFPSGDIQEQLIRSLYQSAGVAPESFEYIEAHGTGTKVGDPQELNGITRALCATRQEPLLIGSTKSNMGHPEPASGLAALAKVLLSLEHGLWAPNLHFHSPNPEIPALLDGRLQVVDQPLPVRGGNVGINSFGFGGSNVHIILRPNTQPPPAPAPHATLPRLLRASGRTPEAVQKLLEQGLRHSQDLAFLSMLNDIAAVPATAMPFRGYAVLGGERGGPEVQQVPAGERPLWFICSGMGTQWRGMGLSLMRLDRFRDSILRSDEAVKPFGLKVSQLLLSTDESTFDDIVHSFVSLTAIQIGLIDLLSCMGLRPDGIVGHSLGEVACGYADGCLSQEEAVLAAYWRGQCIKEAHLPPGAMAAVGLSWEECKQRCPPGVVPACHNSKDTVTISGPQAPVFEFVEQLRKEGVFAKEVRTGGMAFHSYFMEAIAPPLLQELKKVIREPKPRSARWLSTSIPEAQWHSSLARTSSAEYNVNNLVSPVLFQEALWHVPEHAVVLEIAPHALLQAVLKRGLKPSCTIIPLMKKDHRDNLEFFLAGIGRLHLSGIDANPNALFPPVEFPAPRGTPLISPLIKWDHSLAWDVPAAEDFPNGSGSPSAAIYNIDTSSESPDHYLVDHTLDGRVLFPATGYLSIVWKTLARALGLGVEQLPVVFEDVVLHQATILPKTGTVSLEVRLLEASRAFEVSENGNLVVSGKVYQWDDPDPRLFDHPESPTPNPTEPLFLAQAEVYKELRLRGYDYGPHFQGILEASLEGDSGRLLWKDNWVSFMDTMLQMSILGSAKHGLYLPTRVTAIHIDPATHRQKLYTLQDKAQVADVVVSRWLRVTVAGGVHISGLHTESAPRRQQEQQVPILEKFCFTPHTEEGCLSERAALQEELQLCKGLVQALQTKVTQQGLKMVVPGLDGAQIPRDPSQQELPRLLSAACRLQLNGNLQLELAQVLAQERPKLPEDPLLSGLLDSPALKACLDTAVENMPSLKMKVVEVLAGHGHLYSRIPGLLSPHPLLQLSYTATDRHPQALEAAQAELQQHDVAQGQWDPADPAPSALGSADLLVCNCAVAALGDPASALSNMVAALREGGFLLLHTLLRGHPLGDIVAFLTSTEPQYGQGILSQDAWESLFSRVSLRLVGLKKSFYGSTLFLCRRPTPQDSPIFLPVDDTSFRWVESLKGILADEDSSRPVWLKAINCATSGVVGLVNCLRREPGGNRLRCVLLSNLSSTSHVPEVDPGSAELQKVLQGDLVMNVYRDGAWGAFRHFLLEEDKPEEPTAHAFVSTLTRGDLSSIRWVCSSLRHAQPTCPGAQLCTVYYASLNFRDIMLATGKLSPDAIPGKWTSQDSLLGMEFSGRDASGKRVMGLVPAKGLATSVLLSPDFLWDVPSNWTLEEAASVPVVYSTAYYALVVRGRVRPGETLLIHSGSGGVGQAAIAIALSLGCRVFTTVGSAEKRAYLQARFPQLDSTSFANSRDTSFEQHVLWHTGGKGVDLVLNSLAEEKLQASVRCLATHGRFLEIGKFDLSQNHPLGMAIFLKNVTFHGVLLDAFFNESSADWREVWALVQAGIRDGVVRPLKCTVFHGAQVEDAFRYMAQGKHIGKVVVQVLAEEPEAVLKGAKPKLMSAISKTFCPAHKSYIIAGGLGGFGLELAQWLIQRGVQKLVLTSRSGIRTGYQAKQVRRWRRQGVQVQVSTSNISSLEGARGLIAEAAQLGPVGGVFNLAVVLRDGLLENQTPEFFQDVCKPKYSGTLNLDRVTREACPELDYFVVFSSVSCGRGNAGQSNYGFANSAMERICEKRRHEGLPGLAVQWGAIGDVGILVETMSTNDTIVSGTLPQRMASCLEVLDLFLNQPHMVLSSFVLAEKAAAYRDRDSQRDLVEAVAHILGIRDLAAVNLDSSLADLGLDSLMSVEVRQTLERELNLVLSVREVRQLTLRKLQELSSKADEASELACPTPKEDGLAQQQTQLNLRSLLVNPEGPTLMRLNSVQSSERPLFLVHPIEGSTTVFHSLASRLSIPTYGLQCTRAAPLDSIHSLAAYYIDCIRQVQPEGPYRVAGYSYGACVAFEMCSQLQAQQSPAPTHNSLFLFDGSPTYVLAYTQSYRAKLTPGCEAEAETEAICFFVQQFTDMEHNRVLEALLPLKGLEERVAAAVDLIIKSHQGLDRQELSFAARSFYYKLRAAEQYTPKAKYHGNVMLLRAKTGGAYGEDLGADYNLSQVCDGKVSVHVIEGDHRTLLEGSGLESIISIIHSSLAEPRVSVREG
Assay: inhibition of human FAS-TE enzyme activity – biochemical, endpoint fluorescence intensity, uHTS hits, dose response (AID 624327);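 further: fluorescence from hydrolysis of an O-methyl fluorescein acyl ester substrate by the enzyme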
Format: functional
Activity calls are given as the source filed them.
Classes used: yes (1) = active, no (0) = inactive

O=C(NCc1ccccc1)/C(=C\c1cccc([N+](=O)[O-])c1)NC(=O)c1ccco1 | yes (1)
O=C(O)CC(NC(=O)CCC1CCCCC1)c1cc([N+](=O)[O-])ccc1Cl (configuration not stated) | yes (1)
CCOC(=O)[C@]12Cc3c(cc(OC)c(OC)c3OC)[C@H]1N(C1CCCCC1)C(=O)c1ccccc12 | yes (1)
CNC(=S)N(Cc1ccc(OC)cc1)C1CC(=O)N(c2ccc(Cl)cc2)C1=O (configuration not stated) | yes (1)
COc1ccccc1-c1cc(SC)c(C#N)c(=O)o1 | yes (1)
N#CCCSc1nc(N2CCOCC2)c2c(c1C#N)CCCC2 | yes (1)
CCCC(=O)NC1=C(Cl)C(=O)c2ccccc2C1=O | no (0)

###

Assay: Luminescence Cell-Based Dose Confirmation HTS to Identify Activators of 5'UTR Stem-Loop Driven Alpha-Synuclein mRNA Translation in H4 Neuroglioblastoma Cells. [Related pubchem assays: 1829 (Project Summary), 1814 (Primary HTS)]
Format: functional
The source made the active and inactive calls.
observation.type: EC50

Nc1nc(N)nc(-c2ccc(Cl)cc2)n1 | 12.2 µM (active)
Cc1ccc(CSc2nnc(SCC(=O)N/N=C/c3c(C)nn(-c4ccccc4)c3C)s2)cc1 | 0.169 µM (active)
O=C1/C(=C/c2cccnc2)Oc2cc(OS(=O)(=O)c3ccccc3)ccc21 | 18.3 µM (active)
Cn1c(CN2CCOCC2)nc2cc(NC(=O)c3ccc(Cl)cc3)ccc21 | 26.7 µM (active)
CCOC(=O)c1cnn(-c2ccc(C(C)C)cc2)c1NC(=O)C1CCC1 | 13.4 µM (active)

###

Biological target: Sentrin-specific protease 6 (Homo sapiens, UniProt Q9GZR1);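 further: Luminescence-based dose-response confirmatory assay of SENP6 inhibition, following up an ultra-high-throughput screen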
Sequence (Q9GZR1 whole entry): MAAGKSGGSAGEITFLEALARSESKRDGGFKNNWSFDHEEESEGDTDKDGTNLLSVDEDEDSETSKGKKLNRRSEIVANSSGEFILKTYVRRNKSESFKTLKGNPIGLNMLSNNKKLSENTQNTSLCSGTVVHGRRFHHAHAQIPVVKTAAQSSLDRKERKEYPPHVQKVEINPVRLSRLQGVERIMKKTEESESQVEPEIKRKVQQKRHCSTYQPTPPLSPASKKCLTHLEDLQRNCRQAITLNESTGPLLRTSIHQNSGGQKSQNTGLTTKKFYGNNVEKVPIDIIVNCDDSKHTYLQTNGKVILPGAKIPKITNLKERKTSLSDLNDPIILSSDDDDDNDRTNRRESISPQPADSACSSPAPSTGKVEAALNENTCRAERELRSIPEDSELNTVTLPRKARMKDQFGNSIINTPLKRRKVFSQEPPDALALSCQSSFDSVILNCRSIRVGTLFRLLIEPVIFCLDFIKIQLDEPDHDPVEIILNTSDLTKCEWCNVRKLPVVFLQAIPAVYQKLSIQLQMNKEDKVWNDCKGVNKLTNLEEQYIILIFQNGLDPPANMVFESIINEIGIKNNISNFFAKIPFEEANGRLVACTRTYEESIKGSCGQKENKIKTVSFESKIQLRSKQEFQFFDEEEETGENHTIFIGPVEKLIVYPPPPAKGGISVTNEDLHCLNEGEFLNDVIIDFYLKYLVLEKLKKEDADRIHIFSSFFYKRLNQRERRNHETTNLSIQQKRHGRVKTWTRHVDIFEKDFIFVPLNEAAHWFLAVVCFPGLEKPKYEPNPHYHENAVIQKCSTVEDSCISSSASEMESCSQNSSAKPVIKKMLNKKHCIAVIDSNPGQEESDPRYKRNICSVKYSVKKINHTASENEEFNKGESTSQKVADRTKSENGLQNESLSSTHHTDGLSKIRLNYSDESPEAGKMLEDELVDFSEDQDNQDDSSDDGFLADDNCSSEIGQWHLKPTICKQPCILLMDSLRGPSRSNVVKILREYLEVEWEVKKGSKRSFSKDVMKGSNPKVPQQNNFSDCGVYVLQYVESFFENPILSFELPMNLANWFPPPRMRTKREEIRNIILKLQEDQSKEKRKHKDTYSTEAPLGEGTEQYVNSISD
Type: functional
Active and inactive are the calls of the source.
Classes used: 1 (yes) = active, 0 (no) = inactive

Cc1cc(C)nc(Nc2nc(-c3ccccc3)cs2)n1 | 1 (yes)
CCCCn1c(NC(=O)c2ccco2)c(C(=O)OCC)c2nc3ccccc3nc21 | 1 (yes)
Cc1ccc(NC2=C/C(=N/S(=O)(=O)c3cccs3)c3ccccc3C2=O)cc1 | 1 (yes)
Cc1ccccc1/C=C\c1nc(O)c2ccccc2n1 | 1 (yes)
C/C(=N\OC(=O)c1ccccc1F)c1nccs1 | 1 (yes)
COc1ccc(-c2cc(-c3ccc(C)cc3)[nH]n2)c(O)c1 | 1 (yes)
O=C(Nc1ccc(C#Cc2ccccc2)cc1)C1CC1 | 0 (no)

###

Assay: alpha-synuclein stem-loop luciferase translation blockers – H4 neuroglioma cells, luminescence, confirmation (AID 1988)
Assay type: functional, cell-based
Activity calls are given as the source filed them.
observation.type: EC50

Cc1ccc(Cn2nnnc2CN2CCC(c3nc4cc(Cl)ccc4[nH]3)CC2)cc1 | 2.45 µM (active)
Cc1ccc2c(c1)nnn2C1CCN(CC(=O)N2c3ccccc3CC2C)CC1 (stereo not given) | 81.6 µM (active)
Cc1cc(C)n(CCC(=O)N/N=C/c2c(O)ccc3ccccc23)n1 | 8.69 µM (active)
Oc1c(N=Nc2ccccn2)ccc2ccccc12 | 7.46 µM (active)
Cc1ccc(NC(=O)C2C3CCCC2C3c2ccccc2)c(C)c1 (stereo not given) | > 120 µM (not active)

###

Reported EC50 values for the following compounds.
Molecular target: Luciferin 4-monooxygenase (Photinus pyralis, UniProt P08659)
Sequence (P08659 whole entry): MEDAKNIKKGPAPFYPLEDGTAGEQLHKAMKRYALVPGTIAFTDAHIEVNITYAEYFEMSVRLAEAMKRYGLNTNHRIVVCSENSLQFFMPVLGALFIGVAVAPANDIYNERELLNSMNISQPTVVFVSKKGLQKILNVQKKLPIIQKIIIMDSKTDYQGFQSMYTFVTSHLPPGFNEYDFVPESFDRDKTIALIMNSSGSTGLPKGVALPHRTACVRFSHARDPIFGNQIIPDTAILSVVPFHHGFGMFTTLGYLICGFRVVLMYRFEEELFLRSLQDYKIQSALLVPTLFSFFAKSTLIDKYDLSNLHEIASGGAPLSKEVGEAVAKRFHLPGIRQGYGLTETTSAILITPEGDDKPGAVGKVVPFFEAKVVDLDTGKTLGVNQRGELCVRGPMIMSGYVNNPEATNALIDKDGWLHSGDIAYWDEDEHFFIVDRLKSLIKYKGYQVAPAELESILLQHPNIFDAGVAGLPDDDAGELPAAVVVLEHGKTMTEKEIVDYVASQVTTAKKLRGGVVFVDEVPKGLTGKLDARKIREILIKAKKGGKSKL
Assay: inhibition of purified Photinus pyralis luciferase – biochemical, luminescence, dose response (AID 1891)
Active and inactive are the calls of the source.
observation.type: EC50

CCNc1nc(Cl)nc(NC(C)C)n1 [ATRAZINE] | > 112 µM (not active)
Cn1cc(S(=O)(=O)N2CCOCC2)cc1C(=O)NCCc1ccccc1 | > 112 µM (not active)
COc1cccc2cc(C(C)N(CCCN3CCOCC3)C(=O)Nc3ccccc3)oc12 (stereo not given) | > 112 µM (not active)
CS(=O)(=O)N1CCC(Oc2ccccc2C(=O)N2CCN(CC3CC3)CC2)CC1 | > 112 µM (not active)
COc1ccc(OC)c(Nc2nc(C3CC3)nc3c2nnn3Cc2ccccc2)c1 | > 112 µM (not active)
Cn1c(=O)[nH]c(=O)c2c1nc(N1CCCCCC1)n2CC(N)=O | > 112 µM (not active)
CCc1ccc(N2CC(C(=O)OCC(=O)c3c(N)n(CC(C)C)c(=O)n(C)c3=O)CC2=O)cc1 (stereo not given) | > 112 µM (not active)
CCC(CC)=N/N=C/c1c(O)n(CC)c2cc(C3=NNC(=O)CC3)ccc12 | > 112 µM (not active)
COc1ccccc1C(=O)Nc1ccc2c(c1)CCCN2C(=O)c1ccccc1 | 0.712 µM (active)
COc1ccc(Cl)cc1NC(=O)Nc1cnccn1 | > 112 µM (not active)

###

Target: Microphthalmia-associated transcription factor (Homo sapiens)
Sequence (O75030 whole entry): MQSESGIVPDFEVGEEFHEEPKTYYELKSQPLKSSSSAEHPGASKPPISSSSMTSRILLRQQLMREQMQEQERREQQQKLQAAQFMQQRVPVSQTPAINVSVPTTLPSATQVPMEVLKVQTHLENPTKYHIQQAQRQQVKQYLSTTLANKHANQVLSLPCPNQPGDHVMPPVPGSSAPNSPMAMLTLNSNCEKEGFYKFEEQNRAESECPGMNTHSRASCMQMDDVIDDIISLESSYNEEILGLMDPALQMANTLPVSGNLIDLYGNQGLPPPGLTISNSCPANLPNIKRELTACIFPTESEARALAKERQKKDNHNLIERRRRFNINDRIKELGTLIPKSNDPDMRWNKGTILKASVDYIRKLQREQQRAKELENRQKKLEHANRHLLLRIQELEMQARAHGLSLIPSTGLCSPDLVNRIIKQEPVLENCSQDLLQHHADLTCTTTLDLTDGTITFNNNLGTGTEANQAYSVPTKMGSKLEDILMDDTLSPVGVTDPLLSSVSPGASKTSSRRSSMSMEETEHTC
Assay: reducers of TRPM1 reporter luminescence, concentration series – cell-based, SK-MEL-5, cherry-picked, set 3, MITF inhibitor project, dose response (AID 493073);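 further: SK-MEL-5 melanoma cells with luciferase driven by the MITF target TRPM1 promoter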
Type: functional
Calls of active or inactive are those of the source.
observation.type: AC50

Cc1ccc(NCC(=O)N/N=C\c2ccc([N+](=O)[O-])o2)cc1 | 19.1 µM (active)
Cc1ccc(Oc2c(C(N)=O)cc([N+](=O)[O-])cc2[N+](=O)[O-])cc1 | 3.68 µM (active)
O=C(CCCc1ccccc1)Nc1cccc(C(=O)O)c1 | 4.42 µM (active)

###

Entries and their EC50
Test: Trypanosoma cruzi growth suppression in host cells – NIH3T3 host cells, beta-gal luminescence, confirmation (AID 2044);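 further: intracellular parasites grown in NIH/3T3 mouse fibroblasts as host cells; luminescent beta-galactosidase reporter signal from transgenic T. cruzi replicating inside host cells; inhibitors lower the luminescence signal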
Assay type: functional, cell-based
The source made the active and inactive calls.
observation.type: EC50

CCN(CC)c1ccc(/C=C/c2ccc3ccc(OC)cc3[n+]2CC)cc1 | < 100 nM (active)
CC1C(c2ccccc2)N(C)C(c2ccccc2)CC1(O)c1ccc(F)cc1 (configuration not stated) | 2780 nM (active)
Cc1ccc(SCCOCCN2CC(C)OC(C)C2)cc1 (configuration not stated) | < 100 nM (active)
CCN1CCN(c2cc(C)c3cc(NC(=S)N4CCN(c5ccccc5)CC4)ccc3n2)CC1 | 1790 nM (active)
Cn1c(CN2CCCC(C(=O)c3ccc4c(c3)OCO4)C2)nc2ccccc21 (configuration not stated) | 1350 nM (active)
Cc1onc(-c2ccc(Cl)cc2)c1-c1ccnc(SCC(=O)Nc2cc(Cl)cc(Cl)c2)n1 | 1720 nM (active)
CCOc1ccc(CN2CCN(Cc3nc4c(s3)CCCC4)CC2CCO)cc1 (configuration not stated) | 772 nM (active)
CCN1CCN(c2ccc(S(=O)(=O)N3CCCCC3)cc2NC(=O)Cc2ccccc2F)CC1 | 235 nM (active)
CC(C)c1ccc(CNCCCSc2ncccn2)cc1 | 163 nM (active)
CC1CN(S(=O)(=O)c2ccc(C(=O)Nc3nnc(-c4ccc5c(c4)CCCC5)o3)cc2)CC(C)O1 (configuration not stated) | 1860 nM (active)
N#CCC(=O)N/N=C/c1cc(-c2ccccc2)n(-c2ccc(Cl)cc2)c1-c1ccccc1 | 1510 nM (active)
Fc1ccccc1Nc1nc(-c2ccncc2)nc2ccccc12 | 1320 nM (active)

###

Molecular target: Ubiquitin-conjugating enzyme E2 N (Homo sapiens, UniProt P61088);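 further: Dose-response confirmation in a TR-FRET assay detecting UBC13-driven polyubiquitin chain formation, inhibition measured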
Sequence (P61088 whole entry): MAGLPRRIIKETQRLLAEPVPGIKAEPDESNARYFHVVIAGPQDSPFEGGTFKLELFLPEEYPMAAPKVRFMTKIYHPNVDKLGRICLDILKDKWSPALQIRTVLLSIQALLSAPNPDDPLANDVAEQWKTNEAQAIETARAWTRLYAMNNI
Type: functional
Activity calls are given as the source filed them.
Possible outcomes: yes for active, no for inactive

CCOC(=O)N1CCN(C(=O)Cc2ccc(-n3c(=S)[nH]c4ccccc4c3=O)cc2)CC1 | no
CCc1cccc(NC(=O)CSC2=NS(=O)(=O)c3ccccc32)c1 | no
CCCCCCCNC(=O)C1(CC2CC(c3cccc(Br)c3)=NO2)CCNCC1 (stereo not given) | no
CC1CCCC(NC(=O)CSc2ncnc3ccccc23)C1C (stereo not given) | no
COc1cccc(-c2sc3ccccc3c2-c2ccc(OCCN(C)C)cc2)c1 | no
CCN1CCN(C(=O)c2cc(-c3ccco3)nc3ccccc23)CC1 | no
Cc1ccc(Cc2c(C)nc3nc(SCC(=O)NCCCN4CCCCCC4)nn3c2C)cc1 | yes
CCCN1CCN(C(=O)C2CCN(c3ncnc4c3nc3n4CCCCC3)CC2)CC1 | yes
CC(C)C[C@@H]1CN=C(N)N1C[C@@H]1CCCN1C[C@H](C)N1C[C@@H](Cc2ccccc2)N(CCc2ccc(Cl)c(Cl)c2)C1=N | no
N=C(N)N/N=C/c1ccc(OCc2ccc(Cl)cc2)cc1 | yes

###

Test: Luminescence Cell-Based Dose Response HTS to Identify Activators of Luciferase Translation or Activity in H4 […] Cells. [Related pubchem assays: 1829 (Project Summary), 1814 (Primary HTS)]
Type: functional
Active and inactive are the calls of the source.
EC50 for assorted compounds
observation.type: EC50

COc1cccc(NC(=O)C(=O)NCC2CCCN2S(=O)(=O)c2ccccc2)c1 (stereo unspecified) | 2.67 µM (active)
N#Cc1c(N2CCOCC2)nsc1-c1ccc(C(F)(F)F)cc1 | 10.9 µM (active)
O=C(/N=C1\SCC(=O)N1c1ccccc1Cl)c1ccco1 | 8.06 µM (active)
O=C1N(c2ccccc2)C[C@@H]2C[C@@H](c3cc4ccccc4o3)N3CCC[C@@]123 | > 120 µM (not active)
CN(C)c1ccc(/N=C/c2nc(-c3ccccc3)oc2OC(=O)c2cccc(Br)c2)cc1 | 31 µM (active)
O=C1/C(=C/c2cccnc2)Oc2cc(OS(=O)(=O)c3ccccc3)ccc21 | 8.55 µM (active)
